- target-desc: T1, recombinant human FGFR3 IIIb Fc fusion protein (human, UniProt P22607-2 23-377, limits assumed)
- T1 construct: Bought reagent; the IIIb splice isoform is meant; also called rhFGFR3 IIIb Fc; hFGFR3 IIIb; not shown: Fc fragment (removable by Factor Xa, detected with anti-human IgG)
- T1 sequence (looked up): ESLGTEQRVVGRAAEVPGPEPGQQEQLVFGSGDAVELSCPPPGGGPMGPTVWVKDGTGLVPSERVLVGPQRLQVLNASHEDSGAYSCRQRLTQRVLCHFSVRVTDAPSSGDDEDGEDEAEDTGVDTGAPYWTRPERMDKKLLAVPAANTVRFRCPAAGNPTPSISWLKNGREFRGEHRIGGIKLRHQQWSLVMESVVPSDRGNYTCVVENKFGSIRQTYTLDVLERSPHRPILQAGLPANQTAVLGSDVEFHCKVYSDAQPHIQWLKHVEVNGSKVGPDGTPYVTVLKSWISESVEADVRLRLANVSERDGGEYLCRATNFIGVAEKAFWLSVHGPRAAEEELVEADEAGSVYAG
- method: ECL competition assay: inhibition of rhFGFR3 IIIb Fc binding to coated FGF1 (competitor FGF1)
metric: IC50 (nM)
Give bare numbers, in nM.

Example binders with recorded IC50:
binder="15D8 Fab (Fab, V domains shown, not shown: a dimerising Fc or GST, Fab fragment of murine 15D8; preparation not described; also called anti-FGFR3 Fab fragment 15D8) VH: EIQLQQSGPELVKPGASVKVSCKASGYAFTSYNMYWVKQSHGKSLEWIGYIDPYNGGTSYNQKFKGKATLTVDKSSSTAYMHLNSLTSEDSAVYYCAREGGNYEAWFAYWGQGTLVTVSA VL: QIVLTQSPALMSASPGEKVTMTCSASSSVSYMYWYQQKPRSSPKPWIYLTSYLASGVPARFSGSGSGTSYSLTISSMEAEDAATYYCQQWSSYPLTFGAGTKLELKR" metric=IC50 value=63.8
binder="7D12 Fab (Fab, V domains shown, not shown: a dimerising Fc or GST, preparation not described; also called anti-FGFR3 Fab fragment 7D12) VH: EIQLQQSGPELVKPGASVKVSCKASGYAFTSYNMYWVKQSHGKSLEWIGYIDPYNGGTRYNQKFKGKATLTVDKSSSTAYMHLNSLTSEDSAVYYCAREGGNYEAWFAYWGQGTLVTVSA VL: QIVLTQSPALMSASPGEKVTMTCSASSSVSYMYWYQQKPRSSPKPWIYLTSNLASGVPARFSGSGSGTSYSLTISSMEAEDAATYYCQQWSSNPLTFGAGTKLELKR" metric=IC50 value=50

Please give the documented IC50 of anti-FGFR3 monoclonal antibody 7D12 (antibody, mouse IgG1, kappa, V domains shown, Murine IgG1/kappa from a separate hybridoma; also called 7D12 IgG1; 4E7 (7D12)) VH: EIQLQQSGPELVKPGASVKVSCKASGYAFTSYNMYWVKQSHGKSLEWIGYIDPYNGGTRYNQKFKGKATLTVDKSSSTAYMHLNSLTSEDSAVYYCAREGGNYEAWFAYWGQGTLVTVSA VL: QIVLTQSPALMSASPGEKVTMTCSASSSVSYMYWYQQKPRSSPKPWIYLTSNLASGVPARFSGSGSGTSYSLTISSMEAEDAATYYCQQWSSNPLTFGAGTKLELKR
13.3
